- ASSAY_METHOD_TEXT: Evaluation of brain penetration properties
- Assay type: in vivo, BALB/cA mice
- CONDITION_CONTEXT: mouse, plasma; 0.5 hours after oral 50 mg/kg/day, BALB/cA mice; read-out: Compound concentration in plasma
MEASURED_ATTRIBUTE: concentration at 0.5 h (µM)
Unit µM implied. Number only.

Tell me the measured concentration at 0.5 h of C=CC(=O)N1C[C@H](n2c(C#CC3CC3)c(C(=O)N[C@H](C)c3ccccc3)c3c(N)ncnc32)C[C@@H]1CC , please.
17

Query: concentration at 0.5 h; subject: C=CC(=O)N1C[C@H](n2c(C#CC(C)(C)OC)c(C(=O)N[C@H](C)c3ccccc3)c3c(N)ncnc32)C[C@@H]1C
13

What value of measured concentration at 0.5 h is listed for C=CC(=O)N1C[C@H](n2c(C#CC)c(C(=O)N[C@H](CC)c3ccccc3)c3c(N)ncnc32)C[C@@H]1C ?
8.3

Quick one: concentration at 0.5 h for C=CC(=O)N1C[C@H](n2c(C#CC(C)(C)C)c(C(=O)N[C@H](C)c3ccccc3)c3c(N)ncnc32)C[C@@H]1C ?
11

Any idea what concentration at 0.5 h was measured for C=CC(=O)N1C[C@H](n2c(C#CC)c(C(=O)N[C@H](C)c3ccccc3)c3c(N)ncnc32)C[C@@H]1C ?
6.6

I would be grateful if you could share the reported concentration at 0.5 h for C=CC(=O)N1C[C@H](n2c(C#CCC)c(C(=O)N[C@H](C)c3ccccc3)c3c(N)ncnc32)C[C@@H]1C .
9.9

Look up concentration at 0.5 h: C=CC(=O)N1C[C@H](n2c(C#CC)c(C(=O)NC(C)(C)c3ccccc3F)c3c(N)ncnc32)C[C@@H]1C
15
